target: PBP2 from Neisseria gonorrhoeae (FA19) (Neisseria gonorrhoeae); assay: Bocillin-FL fluorescence polarization competition binding, N. gonorrhoeae PBP2; conditions: fluorescence polarization competition binding assay using Bocillin-FL, read-out: N. gonorrhoeae PBP2 Potency
Sequence (P08149 whole entry): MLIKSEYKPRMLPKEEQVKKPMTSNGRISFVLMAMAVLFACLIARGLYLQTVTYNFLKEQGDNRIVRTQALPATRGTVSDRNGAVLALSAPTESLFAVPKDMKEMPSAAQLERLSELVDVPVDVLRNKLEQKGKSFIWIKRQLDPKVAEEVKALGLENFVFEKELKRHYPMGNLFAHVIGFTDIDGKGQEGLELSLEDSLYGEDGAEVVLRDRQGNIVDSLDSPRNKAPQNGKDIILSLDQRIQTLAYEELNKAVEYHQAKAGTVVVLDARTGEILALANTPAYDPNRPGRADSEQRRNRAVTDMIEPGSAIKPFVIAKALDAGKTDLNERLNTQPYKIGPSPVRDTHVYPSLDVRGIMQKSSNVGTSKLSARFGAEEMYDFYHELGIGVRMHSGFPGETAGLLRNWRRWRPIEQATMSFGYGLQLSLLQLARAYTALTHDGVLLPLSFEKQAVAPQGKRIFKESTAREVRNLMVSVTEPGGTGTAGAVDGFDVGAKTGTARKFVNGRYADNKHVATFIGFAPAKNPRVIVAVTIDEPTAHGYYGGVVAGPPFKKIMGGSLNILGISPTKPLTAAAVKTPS
pEC50: −log10 of the molar value.
In this section, each of the compounds is paired with its reported pEC50.

Consider the reported pEC50 for these compounds:
O=C(O)c1cccc2c1OB(O)[C@@H](NC(=O)C(NC(=O)N1CCCC1=O)c1ccc(P(=O)(O)O)cc1)C2 (stereo partly drawn) :: > 5.00
CN1CCCN(C(=O)NC(C(=O)N[C@H]2Cc3cccc(C(=O)O)c3OB2O)c2ccc(P(=O)(O)O)cc2)C1=O (stereo partly drawn) :: > 5.00

Per the record, CCC(=O)NC(C(=O)N[C@H]1Cc2cccc(C(=O)O)c2OB1O)c1ccc(P(=O)(O)O)cc1 (stereo partly drawn) has pEC50 of 4.30 to 5.00

Source: patent US20240270762A1
